These data points were gathered from ChEMBL document CHEMBL4007421.

# Test: Volume of distribution in male Crl:CD(SD) rat at 0.5 mg/kg, iv
# Type: ADME, organism-based
# Applied conditions: in vivo
Assay metric: Vd (L/kg)
Answers are plain numbers, in L/kg.

Entry N#Cc1cccc(S(=O)(=O)c2cnc3cc(F)ccc3c2-c2ccc(Cl)cc2)c1 — recorded Vd = 12.4

----------
# Tested on: Rattus norvegicus
# Test: Effect on spatial learning performance in po dosed Wistar rat measured as escape latency dosed 1 hr prior to first daily trial by Morris water maze test
# Format: ADME, organism-based
# Applied conditions: in vivo
Assay metric: Activity

| Smiles repr | Val |
| --- | --- |
| N#Cc1cccc(S(=O)(=O)c2cnc3cc(F)ccc3c2-c2ccc(F)cc2)c1 | Toxic |
| O=S(=O)(c1ccc(F)c(Cl)c1)c1cnc2cc(F)ccc2c1-c1ccc(Cl)cc1 | Toxic |
| O=S(=O)(c1ccc(F)c(Cl)c1)c1cnc2cc(F)ccc2c1-c1ccc(F)cc1 | Toxic |

----------
# Test: Cmax in fasted male beagle dog at 1 mg/kg, po
# Assay type: ADME, organism-based, Canis lupus familiaris
# Design: dose 1 mg/kg, route oral
# Applied conditions: in vivo
Assay metric: Cmax
Quote the value and follow it with the unit of measurement.

So, N#Cc1cccc(S(=O)(=O)c2cnc3cc(F)ccc3c2-c2ccc(Cl)cc2)c1 ? Its Cmax was 492 nM

----------
# Test: AUC(0 to 8 hrs) in fasted female cynomolgus monkey at 9 mg/kg, po administered as single dose
# Assay type: ADME, organism-based, Macaca fascicularis
# Design: time < 6 hr, dose 9 mg/kg, route oral
# Applied conditions: in vivo
Assay metric: AUC(0-t) at 6 h
Just so you know, I need the unit written after the number.

Lookup result for N#Cc1cccc(S(=O)(=O)c2cnc3cc(F)ccc3c2-c2ccc(Cl)cc2)c1 ; measured AUC(0-t) at 6 h: 0.087 µM·h

----------
# Test: Cmax in male Crl:CD(SD) rat at 4.5 mg/kg, po
# Assay type: ADME, organism-based
# Set-up: dose 4.5 mg/kg, route oral
# Applied conditions: in vivo
Assay metric: Cmax
Express the reported value numerically, then name its unit.

// Cmax value for N#Cc1cccc(S(=O)(=O)c2cnc3cc(F)ccc3c2-c2ccc(Cl)cc2)c1 : 369 nM

----------
# Tgt: Metabotropic glutamate receptor 5 (Rattus norvegicus, UniProt P31424)
# Sequence (P31424 whole entry): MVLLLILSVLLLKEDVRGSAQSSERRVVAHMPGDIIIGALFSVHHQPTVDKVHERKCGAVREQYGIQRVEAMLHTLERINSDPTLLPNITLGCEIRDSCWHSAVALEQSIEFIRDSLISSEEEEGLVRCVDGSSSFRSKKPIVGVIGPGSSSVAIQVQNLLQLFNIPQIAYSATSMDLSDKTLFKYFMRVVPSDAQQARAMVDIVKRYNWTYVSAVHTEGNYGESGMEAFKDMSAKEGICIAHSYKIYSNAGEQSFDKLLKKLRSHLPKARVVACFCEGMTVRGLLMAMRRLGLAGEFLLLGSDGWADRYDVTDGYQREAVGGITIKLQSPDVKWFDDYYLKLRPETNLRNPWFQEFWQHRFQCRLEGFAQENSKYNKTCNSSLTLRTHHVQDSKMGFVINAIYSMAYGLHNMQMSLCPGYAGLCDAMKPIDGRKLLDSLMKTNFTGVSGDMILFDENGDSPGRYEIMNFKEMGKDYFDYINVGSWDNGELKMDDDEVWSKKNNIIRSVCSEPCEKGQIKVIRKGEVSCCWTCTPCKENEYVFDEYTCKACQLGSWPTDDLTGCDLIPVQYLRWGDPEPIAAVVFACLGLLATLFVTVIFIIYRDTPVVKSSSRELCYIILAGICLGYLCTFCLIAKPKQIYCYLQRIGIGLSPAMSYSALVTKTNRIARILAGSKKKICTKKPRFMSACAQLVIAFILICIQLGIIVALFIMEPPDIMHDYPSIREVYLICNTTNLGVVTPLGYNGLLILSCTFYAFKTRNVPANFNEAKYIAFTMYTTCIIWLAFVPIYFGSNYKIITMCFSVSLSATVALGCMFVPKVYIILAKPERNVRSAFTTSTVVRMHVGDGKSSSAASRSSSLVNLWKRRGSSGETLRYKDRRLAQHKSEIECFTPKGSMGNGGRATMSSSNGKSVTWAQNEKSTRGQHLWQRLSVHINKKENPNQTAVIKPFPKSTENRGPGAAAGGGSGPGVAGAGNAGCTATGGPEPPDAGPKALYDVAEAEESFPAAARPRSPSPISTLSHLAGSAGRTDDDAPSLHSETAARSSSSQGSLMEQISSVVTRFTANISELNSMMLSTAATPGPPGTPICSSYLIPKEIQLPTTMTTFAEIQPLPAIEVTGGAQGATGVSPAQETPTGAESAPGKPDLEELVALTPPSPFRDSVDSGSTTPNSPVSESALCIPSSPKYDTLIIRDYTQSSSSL
# Test: Negative allosteric modulation of mGluR5 in E17 Sprague-Dawley rat primary neuronal cultures assessed as reduction of DHPG-induced cytosolic Ca2+ influx after 10 to 20 mins by fluo-4/AM-dye based fluorometric analysis
Assay metric: pIC50
Give bare numbers, as −log10 of the molar value.

Entry N#Cc1cccc(S(=O)(=O)c2cnc3cc(F)ccc3c2-c2ccc(Cl)cc2)c1 ; pIC50 = 7.72

----------
# Test: AUC in female Crl:CD(SD) rat at 4.5 mg/kg, po
# Assay type: ADME, organism-based
# Applied conditions: in vivo
Assay metric: AUC (µM·h)
Numbers only, in µM·h.

AUC reported for this compound N#Cc1cccc(S(=O)(=O)c2cnc3cc(F)ccc3c2-c2ccc(Cl)cc2)c1 : 7.3

----------
# Test: Plasma protein binding in rat
# Format: ADME, cell-free
# Applied conditions: read-out: PPB (converted)
Assay metric: fraction unbound
One number for each entry.

Entry N#Cc1cccc(S(=O)(=O)c2cnc3cc(F)ccc3c2-c2ccc(Cl)cc2)c1 , fraction unbound reported as 0.0027
